Origin of measurements: paper PMC11547513

# Test system: PC-3 (human prostate cancer cell)
# assay_explanation: MTT assay, in vitro cytotoxicity on PC-3
# condition_details: Homo sapiens, read-out: IC50 (Mean ± S.D.), PC-3
metric_name: pIC50
Worth noting: pIC50 values are minus log10 of concentrations stated in mol/L.

## Input Need pIC50, item COc1ccc2c(c1)[nH]c1c(C)nccc12 [Harmine, reference compound]
## Output 4.61

* * *

# System: PC-3 (human prostate cancer cell)
# assay_explanation: MTT assay, in vitro cytotoxicity on PC-3
# condition_details: Homo sapiens, read-out: Inhibitory Activity/% at 10 μM, PC-3, Table 1 (7 series); 10 μM; average of three replicates; "/" means no anticancer activity
This section presents compounds with their documented inhibition at 10 µM values.

Illustrative cases are given below, each with its answer.
## Input Need inhibition at 10 µM, item O=C(CSc1nnc(-c2cc3c(cn2)[nH]c2ccccc23)o1)N1CCN(c2ccccc2)CC1
## Output 35.6%

## Input Proceed to O=C(CSc1nnc(-c2cc3c(cn2)[nH]c2ccccc23)o1)N1CCN(c2ccc(Cl)c(Cl)c2)CC1
## Output 29.6%

## Input Proceed to COc1cccc(N2CCN(C(=O)CSc3nnc(-c4cc5c(cn4)[nH]c4ccccc45)o3)CC2)c1
## Output 14.7%

Shifting focus to the compound that follows.
## Input Need inhibition at 10 µM, item O=C(CSc1nnc(-c2cc3c(cn2)[nH]c2ccccc23)o1)N1CCOCC1
## Output 39.6%
